Taken from ChEMBL document CHEMBL2412952.

Assignment: determine reported pIC50 for the given compounds.
- Measured target: UniProt:P31648
- Method: Inhibition of mouse GAT1-mediated [3H]GABA uptake stably transfected in HEK293 cells
In textbook form, pIC50 equals minus log to base ten of the concentration in mol/L.

Please give the documented pIC50 of C[C@H](O)C[C@H](C(=O)NCc1ccccc1)N1CCC(=C(c2ccccc2)c2ccccc2)CC1 (relative stereo)
4.62

Tell me measured pIC50 for O=C(NCc1ccccc1Cl)C(CCO)N1CCC(C(c2ccccc2)c2ccccc2)CC1 (centres undefined) please.
4.71

Report pIC50 for C[C@H](O)C[C@H](C(=O)NCc1ccc(F)cc1)N1CCC(=C(c2ccccc2)c2ccccc2)CC1 (relative stereo)
4.46

Answer with the recorded pIC50 for the compound listed here: CN(CCC=C(c1ccccc1)c1ccccc1)C(CCO)C(=O)NCc1ccc(F)cc1 (centres undefined)
4.66

Read the entry C[C@@H](O)C[C@H](C(=O)NCc1ccccc1)N1CCC(=C(c2ccccc2)c2ccccc2)CC1 (relative stereo) and write its reported pIC50.
5.11

# return recorded pIC50 for entry CN(CCCC(c1ccccc1)c1ccccc1)C(CCO)C(=O)NCc1ccccc1Cl (centres undefined)
4.43

Read off the recorded pIC50 for Cc1ccc(CNC(=O)C(CCO)N2CCC(C(c3ccccc3)c3ccccc3)CC2)cc1 (centres undefined)
4.52

Return reported pIC50. Input compound: O=C(NCc1ccccc1)C(CCO)NCCCC(c1ccccc1)c1ccccc1 (centres undefined)
4.21

Please report pIC50 for the following compound: O=C(NCc1ccc(Cl)cc1)C(CCO)NCCCC(c1ccccc1)c1ccccc1 (centres undefined)
4.63

Complete the entry with pIC50 for O=C(NCc1ccc(F)cc1)C(CCO)NCCCC(c1ccccc1)c1ccccc1 (centres undefined)
4.41

Please report the measured pIC50 for O=C(NCc1ccccc1Cl)C(CCO)NCCCC(c1ccccc1)c1ccccc1 (centres undefined)
4.48

For the compound CN(CCC=C(c1ccccc1)c1ccccc1)C(CCO)C(=O)NCc1ccc(Cl)cc1 (centres undefined) , give its reported pIC50.
4.63

Give pIC50 for CN(CCCC(c1ccccc1)c1ccccc1)C(CCO)C(=O)NCc1ccc(F)cc1 (centres undefined)
4.01

Please report the measured pIC50 for Cc1ccc(CNC(=O)[C@@H](C[C@H](C)O)N2CCC(=C(c3ccccc3)c3ccccc3)CC2)cc1 (relative stereo)
4.27

Note pIC50 for the compound shown: Cc1ccc(CNC(=O)C(CCO)N(C)CCC=C(c2ccccc2)c2ccccc2)cc1 (centres undefined)
4.65

Find the measured pIC50 of Cc1ccc(CNC(=O)C(CCO)NCCCC(c2ccccc2)c2ccccc2)cc1 (centres undefined) and report it.
4.26

Give the reported pIC50 for this compound. O=C(NCc1ccccc1)C(CCO)N1CCC(C(c2ccccc2)c2ccccc2)CC1 (centres undefined)
4.88

Identify the reported pIC50 for the following entry. C[C@H](O)C[C@H](C(=O)NCc1ccc(Cl)cc1)N1CCC(=C(c2ccccc2)c2ccccc2)CC1 (relative stereo)
4.18

Using known records, supply pIC50 for O=C(NCc1ccc(Cl)cc1)C(CCO)N1CCC(C(c2ccccc2)c2ccccc2)CC1 (centres undefined)
4.62
